system: Talaromyces funiculosus; experiment: Fungicidal activity against Penicillium funiculosum ATCC 36839 incubated for 72 hrs followed by serial sub-cultivation for 72 hrs and measured after 72 hrs by serial dilution method; type: functional
MEASURE_NAME: MFC99.5 (×10⁻² umol/ml)
Numbers only, in ×10⁻² umol/ml.

Record excerpt, results attached:
O=C(N/N=C/c1c(Cl)cccc1Cl)c1nsc2ccccc12 | 58
O=C(NN1C(=O)CSC1c1ccccc1)c1nsc2ccccc12 (stereo not drawn) | 42.2
O=C(Cc1nsc2ccccc12)NN1C(=O)CSC1c1ccccc1 (stereo not drawn) | 21.6
O=C(Cc1nsc2ccccc12)NN1C(=O)CSC1c1c(F)cccc1Cl (stereo not drawn) | 9.8

Hi there! I need MFC99.5 for each item below, if you can.
1. O=C(NN1C(=O)CSC1c1cccc(Cl)c1)c1nsc2ccccc12 (stereo not drawn)
2. O=C(N/N=C/c1c(F)cccc1F)c1nsc2ccccc12
3. O=C(N/N=C/c1c(F)cccc1Cl)c1nsc2ccccc12

[20.5, 12.6, 6]

----------
Provide the recorded MBC99.5 for the entries that follow.
test system: Staphylococcus aureus; test: Bactericidal activity against Staphylococcus aureus ATCC 6538 incubated for 24 hrs followed by serial sub-cultivation and measured after 24 hrs by microdilution method; assay type: functional
Numbers only, in ×10⁻² umol/ml.

See these solved cases before continuing.
O=C(Cc1nsc2ccccc12)NN1C(=O)CSC1c1c(F)cccc1Cl (stereo not drawn) | 19.6
O=C(NN1C(=O)CSC1c1ccc(F)cc1)c1nsc2ccccc12 (stereo not drawn) | 21.4
O=C(N/N=C/c1c(F)cccc1Cl)c1nsc2ccccc12 | 12
O=C(NN1C(=O)CSC1c1cccc(Cl)c1)c1nsc2ccccc12 (stereo not drawn) | 20.5
O=C(N/N=C/c1c(Cl)cccc1Cl)c1nsc2ccccc12 | 17.6
O=C(Cc1nsc2ccccc12)NN1C(=O)CSC1c1ccccc1 (stereo not drawn) | 40.5
O=C(NN1C(=O)CSC1c1c(F)cccc1F)c1nsc2ccccc12 (stereo not drawn) | 20.4
O=C(NN1C(=O)CSC1c1ccc(Cl)cc1)c1nsc2ccccc12 (stereo not drawn) | 38.4
O=C(NN1C(=O)CSC1c1ccccc1Cl)c1nsc2ccccc12 (stereo not drawn) | 38.4
O=C(NN1C(=O)CSC1c1ccccc1F)c1nsc2ccccc12 (stereo not drawn) | 40.2

Hi, could you look up MBC99.5 for each item in my list?
1. O=C(N/N=C/c1c(F)cccc1F)c1nsc2ccccc12
2. O=C(Cc1nsc2ccccc12)N/N=C/c1c(F)cccc1F
3. O=C(Cc1nsc2ccccc12)N/N=C/c1c(F)cccc1Cl

25.2
23.2
48.2

----------
test system: Escherichia coli; assay: Bactericidal activity against Escherichia coli ATCC 35210 incubated for 24 hrs followed by serial sub-cultivation and measured after 24 hrs by microdilution method; assay type: functional
So I've got a bunch of compounds here, and I need their MBC99.5 values.
One number for each entry, in ×10⁻² umol/ml.

O=C(NN1C(=O)CSC1c1ccccc1Cl)c1nsc2ccccc12 (configuration not stated) | 38.4
CN[C@@H]1[C@H](O[C@H]2[C@H](O[C@H]3[C@H](O)[C@@H](O)[C@H](N=C(N)N)[C@@H](O)[C@@H]3N=C(N)N)O[C@@H](C)[C@]2(O)C=O)O[C@@H](CO)[C@H](O)[C@H]1O [STREPTOMYCIN] | 34.4
O=C(Cc1nsc2ccccc12)NN1C(=O)CSC1c1ccc(Cl)cc1 (configuration not stated) | 37.2
O=C(NN1C(=O)CSC1c1ccccc1)c1nsc2ccccc12 (configuration not stated) | 22.5
O=C(NN1C(=O)CSC1c1cccc(F)c1)c1nsc2ccccc12 (configuration not stated) | 21.4

Parameter requested: MBC99.5. Apply to each item below.
1. O=C(NN1C(=O)CSC1c1ccc(F)cc1)c1nsc2ccccc12 (configuration not stated)
2. O=C(Cc1nsc2ccccc12)N/N=C/c1c(F)cccc1F
3. O=C(Cc1nsc2ccccc12)NN1C(=O)CSC1c1c(F)cccc1Cl (configuration not stated)
4. O=C(Cc1nsc2ccccc12)NN1C(=O)CSC1c1c(F)cccc1F (configuration not stated)
5. O=C(Cc1nsc2ccccc12)NN1C(=O)CSC1c1cccc(Cl)c1 (configuration not stated)
6. O=C(Cc1nsc2ccccc12)N/N=C/c1c(F)cccc1Cl
7. O=C(Cc1nsc2ccccc12)NN1C(=O)CSC1c1ccccc1Cl (configuration not stated)

1: 21.4; 2: 23.2; 3: 36.7; 4: 37; 5: 37.2; 6: 48.2; 7: 37.2

Data credit: ChEMBL document CHEMBL4257449
